experiment-summary: Dexamethasone in eye tissues and fluids after one 25 μL depot instillation
experimental-parameters: female, New Zealand White, rabbit, aqueous humor, topical, 25 μL, Dexamethasone, Aqueous Humor Conc., Day 14; per eye; one 25 μL instillation of 10% dexamethasone depot; LOQ 0.5 ng/mL
measure: concentration at 14 day
Number first, unit second.

For this molecule ( C[C@@H]1C[C@H]2[C@@H]3CCC4=CC(=O)C=C[C@]4(C)[C@@]3(F)[C@@H](O)C[C@]2(C)[C@@]1(O)C(=O)CO ), measured concentration at 14 day is 0.677 ng/mL

====

experiment-summary: Dexamethasone in eye tissues and fluids after one 25 μL depot instillation
experimental-parameters: female, New Zealand White, rabbit, iris/ciliary body homogenate, topical, 25 μL, Dexamethasone, Iris/Ciliary Body Homog., Day 14; per eye; one 25 μL instillation; LOQ 0.2 ng/mL
measure: concentration at 14 day (ng/mL)
Answer in ng/mL, number only, no unit symbol.

Reported concentration at 14 day ( C[C@@H]1C[C@H]2[C@@H]3CCC4=CC(=O)C=C[C@]4(C)[C@@]3(F)[C@@H](O)C[C@]2(C)[C@@]1(O)C(=O)CO ) = 0.239

The measurements presented in this section are drawn from patent US12280141B2.
